Test: in vitro
Settings: human
property_label: CC50 (µM)
Express the result in µM but write the number alone.

molecule	CC50 (µM)
CC(C)(C)NC(=O)[C@@H]1C[C@@H]2CCCC[C@@H]2CN1C[C@@H](O)[C@H](Cc1ccccc1)NC(=O)[C@H](CC(N)=O)NC(=O)c1ccc2ccccc2n1 [Saquinavir]	27.3
O=c1c2ccccc2[se]n1-c1ccccc1 [Ebselen]	8
Cc1cccc(C)c1OCC(=O)N[C@@H](Cc1ccccc1)[C@@H](O)C[C@H](Cc1ccccc1)NC(=O)[C@H](C(C)C)N1CCCNC1=O [Lopinavir]	29.1
COc1ccc2cc(-c3cc(-c4cc(Cl)cc(Cl)c4)nn3[C@@H](C)c3ccc(C(=O)NCCC(=O)O)cc3)ccc2c1 [MK 0893]	42.3
C=C[C@@H]1C[C@]1(NC(=O)[C@@H]1C[C@@H](Oc2ncc(OC)c3ccc(Cl)cc23)CN1C(=O)[C@@H](NC(=O)OC(C)(C)C)C(C)(C)C)C(=O)NS(=O)(=O)C1CC1 [Asunaprevir]	31.5
Cc1c(O)cccc1C(=O)N[C@@H](CSc1ccccc1)[C@H](O)CN1C[C@H]2CCCC[C@H]2C[C@H]1C(=O)NC(C)(C)C [Nelfinavir]	11.2

Here's the next entry for you.
Value of measured CC50 for the entry CCN(CC)CCCC(C)Nc1c2ccc(Cl)cc2nc2ccc(OC)cc12 (stereo not shown) [Quinacrine] : 2.5
